System: CCRF-CEM
Assay: Cancer cell line growth inhibition, CellTiter-Glo (Example 3)
Assay type: cell-based
Conditions: Homo sapiens, Leukemia, 72 hours, read-out: growth inhibition of various human cancer cell lines
ASSAY METRIC: IC50 (µM)

P. Nc1ccccc1NC(=O)CCCCCCNC(=O)c1cc2ccccc2[nH]1
Q. Nc1ccccc1NC(=O)CCCCCNC(=O)c1ccc(-c2ccccc2)o1
Ask: Identify the entry with the larger IC50. Options: P and Q To answer, give the label that identifies your chosen option.
Result: P
(P: 4.24 µM, Q: 2.65 µM)

----------
Test system: OVCAR-4
Experiment: Cancer cell line growth inhibition, CellTiter-Glo (Example 3)
Type: cell-based
Conditions: Homo sapiens, Ovarian, 72 hours, read-out: growth inhibition of various human cancer cell lines
ASSAY METRIC: IC50 (µM)

Nc1ccccc1NC(=O)CCCCCNC(=O)c1cc2ccccc2[nH]1 | 14.3
Nc1ccccc1NC(=O)CCCCCNC(=O)c1ccc(-c2ccccc2)o1 | 11.9
Nc1ccccc1NC(=O)CCCCCCNC(=O)c1cc2ccccc2[nH]1 | 13.6
